tested on: TDP-43 inclusions in PC12 cells expressing WT TDP-43::GFP; assay: High-throughput screen for inhibition of TDP-43 inclusion formation in inducible TDP-43::GFP PC12 cells (IN Cell Analyzer); conditions: read-out: Inhibition of TDP-43 Inclusion Formation EC50; PC12 TDP-43::GFP cells; arsenite 50 μM, 18 hrs; representative values
quantity-measured: EC50 (µM)
Numbers only, in µM.

Below, each entry is followed by its recorded EC50 result.
// query Return value of EC50 for input OC1(c2ccccc2)CCN(CCCCOC(c2ccc(F)cc2)c2ccc(F)cc2)CC1 [Compound 2-3] , no commentary.
// result 1.92

// query Annotate the compound COCc1ccc(C(=O)NC(CC(C)C)c2nnc3n2CCN(Cc2cc4ccccc4o2)CC3)o1 (centres unmarked) [Compound 2-7] with its measured EC50.
// result 0.011

// query Output EC50 of C#CCNCC1(c2ccccc2)CCN(CCCCOC(c2ccc(F)cc2)c2ccc(F)cc2)CC1 [Compound 2-2]
// result 0.29

// query # return recorded EC50 for input Cc1ccc2ncnc(Nc3cccc(Cl)c3)c2c1 [Compound 2-4]
// result 0.01

# ---- query compound ----
// query // fetch EC50 given entry COc1ccccc1OCC(=O)NC1CCCN(c2ccc(C(F)(F)F)cn2)C1 (centres unmarked) [Compound 4]
// result 0.098

Taken from patent US9359363B2.
